# System: Ctenocephalides felis
# MEASUREMENT CONDITIONS: 8 h; data from laboratory 1
METRIC: C. felis Mortality (%) 8 h
Numbers only here, please. The scale is %.

Known results for compounds:
C. felis Mortality (%) 8 h in this record for C#CCN(N=C(C)c1cc(Cl)ccc1NS(=O)(=O)C(F)(F)F)c1ccccc1 : 5

compound CC(=NN(C)c1ccccc1)c1cccc(Cl)c1NS(=O)(=O)C(F)(F)F , C. felis Mortality (%) 8 h observed: 10

Looking up O=S(=O)(Nc1ccc(Cl)cc1C1=NN(c2ccc(F)cc2)CC1)C(F)(F)F , I see its C. felis Mortality (%) 8 h listed as 9

Then there is this compound:
Recorded result, C/C(=N\N(C)c1nccc2ccccc12)c1cc(Cl)ccc1NS(=O)(=O)C(F)(F)F , C. felis Mortality (%) 8 h: 7
